Entry source: the RNAGym collection of RNA variant scans (doi:10.7554/elife.80360)

B1: HDV Ribozyme (parent)
chain: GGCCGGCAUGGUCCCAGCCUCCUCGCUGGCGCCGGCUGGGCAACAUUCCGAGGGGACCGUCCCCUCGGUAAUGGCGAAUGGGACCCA

# Variants of: B1
# procedure.details: self-cleavage, relative activity (ratio to wild type); higher = more cleavage; co-transcriptional
endpoint.label: self-cleavage
Lab note: record just the number, no unit beside it.

// solved cases for self-cleavage follow
| mutation.id | self-cleavage |
| --- | --- |
| G10A C44A | 0.321 |
| C66U A87G | 0.999 |
| G2A U60G | 0.314 |

[Q] Could you tell me which self-cleavage is on file for G11C C36U ?
[A] 0.136

[Q] Another variant to look at: C3U G55U
[A] 0.805

[Q] Now the same for C85G A87C
[A] 0.849

[Q] Here is the next variant: A16C A42C
[A] 0.192
